- TARGET OR TEST SYSTEM: T1, Nluc-IL23R fusion protein (human, UniProt Q5VWK5 22-629)
- T1 construct: range 22-629; expressed with a secretion signal in HEK293 cells; used as crude membrane preparation; also called hIL-23R; human IL-23R; not shown: Nanoluc protein from the expression plasmid N1371 (Promega), N-terminal of IL-23R
- T1 sequence (looked up): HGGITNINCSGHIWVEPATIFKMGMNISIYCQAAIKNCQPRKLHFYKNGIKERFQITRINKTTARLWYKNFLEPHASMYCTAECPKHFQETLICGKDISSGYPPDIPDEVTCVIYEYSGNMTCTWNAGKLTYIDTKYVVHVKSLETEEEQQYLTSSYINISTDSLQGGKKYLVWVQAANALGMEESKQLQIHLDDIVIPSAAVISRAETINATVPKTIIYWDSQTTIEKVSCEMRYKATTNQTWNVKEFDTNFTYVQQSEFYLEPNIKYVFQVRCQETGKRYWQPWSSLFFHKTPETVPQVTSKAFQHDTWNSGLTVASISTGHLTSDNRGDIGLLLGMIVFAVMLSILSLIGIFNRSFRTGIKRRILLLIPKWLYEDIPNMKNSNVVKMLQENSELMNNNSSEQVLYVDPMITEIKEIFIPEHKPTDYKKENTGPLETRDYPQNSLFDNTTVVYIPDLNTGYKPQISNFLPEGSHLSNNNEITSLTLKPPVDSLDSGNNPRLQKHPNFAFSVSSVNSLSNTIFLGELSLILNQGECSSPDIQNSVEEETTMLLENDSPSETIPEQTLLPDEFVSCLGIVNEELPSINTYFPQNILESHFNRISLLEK
- TEST METHOD NOTES: BRET competition vs TAMRA-labelled peptide, Nluc-IL23R membranes
*1 amine or outer side, *2 acyl side, *3 side chain or, on linkers, in order; H or OH if unused. Bridges are numbered along the chain shown (N, C = ends). Where no end group is shown, it is not given here. [ ]: non-standard residue; d: D form. 4‑Aminomethyl‑phenylacetyl = 4-aminomethyl-phenylacetyl unit, its amine closes the lactam, O=C(Cc1ccc(CN[*:1])cc1)[*:2]; 2Nal = N[C@@H](Cc1ccc2ccccc2c1)C(=O)O; AEF = NCCOc1ccc(C[C@H](N)C(=O)O)cc1; αMeL = CC(C)C[C@](C)(N)C(=O)O; 3Amb = NCc1cccc(C(=O)O)c1
Attribute: IC50
Please reply with the bare figure in nM and do not write the unit itself.

Here's what some known entries look like.
# BINDER, EXPERIMENTAL RESULT
data = [
    ("H-GCTCWECWWLCS-NH2 (bridge 4-7, 2-11; not fully specified (bridges), compound from Heinis et al., 2020, synthesised for comparison) [I1 (isomer 3)]", 130),
    ("Ac-KSCWQCW[2Nal]LER-NH2 (lactam 1-10; bridge 3-6; not fully specified (bridges); printed as [Ac]-K(1c)SC(2a)WQC(2a)W[2-Nal]LE(1c)R-[NH2]) [Ref 18]", 3.5),
    ("[4‑Aminomethyl‑phenylacetyl]SCWQC[AEF][2Nal][αMeL]ES-NH2 (lactam (positions not given here); bridge 3-6; not fully specified (bridges); printed as [4-Aminomethyl-phenylacetyl](1c)*SC(2a)WQC(2a)[Y(2-aminoethoxy)][2-Nal][2-Me-Leu]E(1c)S-[NH2], Y = Y(2-aminoethoxy)) [Ref 81]", 0.39),
]

Pending binder:
*Q* Any idea what IC50 was measured for [3Amb]SCWQC[AEF][2Nal][αMeL]E[dR]-NH2 (lactam N-10; bridge 3-6; not fully specified (bridges); printed as [(3-Aminomethyl)benzoyl](1c)*SC(2a)WQC(2a)[Y(2-aminoethoxy)][2-Nal][2-Me-Leu]E(1c)[{d}R]-[NH2], Y = Y(2-aminoethoxy), R = D-Arg) [Ref 41] ?
*A* 2.8
